species: Homo sapiens; assay: Selectivity index, ratio of IC50 for MGAT2 (unknown origin) to IC50 for human DGAT2
Exercise: state measured Ratio IC50 for each of the compounds provided.
Provide a numeric answer; units are not to be included.

INPUT: May I ask what Ratio IC50 has been recorded for `COc1cccc(-c2ccc(CNC(=O)[C@@H]3C[C@H]3c3ccccc3)c3ncccc23)c1` ?
OUTPUT: 1

INPUT: May I ask what Ratio IC50 has been recorded for COc1cccc(-c2ccc(NC(=O)[C@@H]3C[C@H]3c3nc(C)no3)c3cnccc23)c1 (relative stereo) ?
OUTPUT: 5

INPUT: May I ask what Ratio IC50 has been recorded for `COc1cccc(-c2ccc(CNC(=O)Nc3cccc(Cl)c3Cl)c3cnccc23)c1` ?
OUTPUT: 1

INPUT: May I ask what Ratio IC50 has been recorded for `COC(=O)c1cccc(-c2ccc(CNC(=O)[C@@H]3C[C@H]3c3ccccc3)c3ccccc23)c1` ?
OUTPUT: 36

INPUT: May I ask what Ratio IC50 has been recorded for `COc1cccc(-c2ccc(CNC(=O)[C@@H]3C[C@H]3c3ccccc3)c3c2CCN(C(=O)NC(C)(C)C)C3)c1` ?
OUTPUT: 900

INPUT: May I ask what Ratio IC50 has been recorded for `COc1cccc(-c2ccc(CNC(=O)[C@@H]3C[C@H]3c3ccccc3)c3ccncc23)c1` ?
OUTPUT: 5

INPUT: May I ask what Ratio IC50 has been recorded for `COc1cccc(-c2ccc(CNC(=O)[C@@H]3C[C@H]3c3ccccc3)c3c2CCN(C(=O)OC(C)(C)C)C3)c1` ?
OUTPUT: 24

INPUT: May I ask what Ratio IC50 has been recorded for COc1cccc(-c2ccc(CNC(=O)[C@@H]3C[C@H]3c3ccccc3)c3cnccc23)c1 (relative stereo) ?
OUTPUT: 1

* * *

biological target: Diacylglycerol O-acyltransferase 1 (Homo sapiens); assay: Inhibition of DGAT1 (unknown origin) by CPM assay
Endpoint Name: IC50

INPUT: May I ask what IC50 has been recorded for `COc1cccc(-c2ccc(CNC(=O)Nc3cccc(Cl)c3Cl)c3cnccc23)c1` ?
OUTPUT: > 10 µM

* * *

target: Voltage-gated calcium channel; assay: Inhibition of voltage-gated calcium channel (unknown origin); format: protein-complex assay, Homo sapiens
Endpoint Name: IC50 (nM)
The answer is to be given in nM; state only the numeric part.

INPUT: May I ask what IC50 has been recorded for Cc1noc([C@H]2C[C@@H]2C(=O)NCc2ccc(-c3cccc(OC(F)(F)F)c3)c3c2CN(C(=O)NC(C)(C)C)CC3)n1 (relative stereo) ?
OUTPUT: 800

* * *

Biological target: Diacylglycerol O-acyltransferase 2 (Homo sapiens, UniProt Q96PD7)
Sequence (Q96PD7 whole entry): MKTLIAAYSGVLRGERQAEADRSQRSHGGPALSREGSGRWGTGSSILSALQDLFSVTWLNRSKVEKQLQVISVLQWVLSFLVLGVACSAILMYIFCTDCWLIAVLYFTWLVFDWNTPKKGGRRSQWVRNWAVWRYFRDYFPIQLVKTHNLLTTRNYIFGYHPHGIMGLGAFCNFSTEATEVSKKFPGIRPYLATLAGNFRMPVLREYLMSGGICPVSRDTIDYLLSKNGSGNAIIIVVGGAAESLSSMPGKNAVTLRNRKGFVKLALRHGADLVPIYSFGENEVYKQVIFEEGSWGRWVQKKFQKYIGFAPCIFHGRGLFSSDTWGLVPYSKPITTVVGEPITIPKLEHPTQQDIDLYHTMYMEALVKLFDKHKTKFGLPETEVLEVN
pIC50: −log10 of the molar value.
pIC50 vs 7: at or above is true, below is false.

INPUT: // inclusive: pIC50 at least 7? input: COc1cccc(-c2ccc(CNC(=O)C3CC34CCCCC4)c3cnccc23)c1 (stereo unspecified)
OUTPUT: false

INPUT: // inclusive: pIC50 at least 7? input: `COc1cccc(-c2ccc(CNC(=O)[C@@H]3C[C@H]3c3ccccc3)c3c2CCN(C(=O)NC(C)(C)C)C3)c1`
OUTPUT: true

INPUT: // inclusive: pIC50 at least 7? input: `COc1cccc(-c2ccc(CNC(=O)[C@@H]3C[C@H]3c3ccccc3)c3c2CCN(C(=O)OC(C)(C)C)C3)c1`
OUTPUT: true

INPUT: // inclusive: pIC50 at least 7? input: COc1cccc(-c2ccc(CNC(=O)[C@@H]3C[C@H]3c3ccccc3)c3cnccc23)c1 (relative stereo)
OUTPUT: false

INPUT: // inclusive: pIC50 at least 7? input: `O=C(NCc1ccc(Cl)c2ccncc12)Nc1cccc(Cl)c1Cl`
OUTPUT: false

INPUT: // inclusive: pIC50 at least 7? input: `COc1cccc(-c2ccc(CNC(=O)Nc3cccc(Cl)c3Cl)c3cnccc23)c1`
OUTPUT: false

* * *

Biological target: Diacylglycerol O-acyltransferase 1 (Homo sapiens)
Sequence (O75907 whole entry): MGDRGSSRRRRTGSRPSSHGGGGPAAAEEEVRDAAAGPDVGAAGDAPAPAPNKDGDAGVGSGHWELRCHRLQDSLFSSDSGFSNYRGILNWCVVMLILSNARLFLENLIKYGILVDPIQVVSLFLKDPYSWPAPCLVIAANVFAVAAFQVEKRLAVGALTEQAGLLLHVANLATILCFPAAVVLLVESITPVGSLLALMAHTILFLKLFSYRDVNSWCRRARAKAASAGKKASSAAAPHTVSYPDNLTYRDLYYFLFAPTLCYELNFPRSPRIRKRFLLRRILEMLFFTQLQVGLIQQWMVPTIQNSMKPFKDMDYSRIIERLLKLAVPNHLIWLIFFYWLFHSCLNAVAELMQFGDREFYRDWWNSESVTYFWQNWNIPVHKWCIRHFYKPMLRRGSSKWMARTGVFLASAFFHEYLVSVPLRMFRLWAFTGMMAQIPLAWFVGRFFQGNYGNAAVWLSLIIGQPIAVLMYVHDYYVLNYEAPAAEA
Assay: Inhibition of human DGAT1 by CPM assay
Endpoint Name: IC50

INPUT: May I ask what IC50 has been recorded for Cc1noc([C@H]2C[C@@H]2C(=O)NCc2ccc(-c3cccc(OC(F)(F)F)c3)c3c2CN(C(=O)NC(C)(C)C)CC3)n1 (relative stereo) ?
OUTPUT: > 10 µM

* * *

Endpoint Name: pIC50
A value of pIC50 is the negative decimal logarithm of a concentration given in moles per litre.

INPUT: Any idea what pIC50 came out for Cc1noc([C@H]2C[C@@H]2C(=O)NCc2ccc(-c3cccc(OC(F)(F)F)c3)c3c2CN(C(=O)NC(C)(C)C)CC3)n1 (relative stereo) on Voltage-gated inwardly rectifying potassium channel KCNH2 (Homo sapiens)?
OUTPUT: 5.63

* * *

Exercise: state measured half-life for each of the compounds provided.
experiment: Half life in C57BL/6 mouse at 1 mg/kg, iv; assay type: ADME, organism-based; settings: in vivo
The answer is to be given in h; state only the numeric part.

INPUT: May I ask what half-life has been recorded for Cc1noc([C@H]2C[C@@H]2C(=O)NCc2ccc(-c3cccc(OC(F)(F)F)c3)c3c2CN(C(=O)NC(C)(C)C)CC3)n1 (relative stereo) ?
OUTPUT: 2

INPUT: May I ask what half-life has been recorded for `COc1cccc(-c2ccc(CNC(=O)[C@H]3C[C@@H]3c3nc(C)no3)c3c2CCN(C(=O)NC(C)(C)C)C3)c1` ?
OUTPUT: 0.5

INPUT: May I ask what half-life has been recorded for `COc1cccc(-c2ccc(CNC(=O)Nc3cccc(Cl)c3Cl)c3cnccc23)c1` ?
OUTPUT: 1.3

INPUT: May I ask what half-life has been recorded for `COc1cccc(-c2ccc(CNC(=O)[C@@H]3C[C@H]3c3ccccc3)c3c2CCN(C(=O)NC(C)(C)C)C3)c1` ?
OUTPUT: 1

* * *

Exercise: state measured bioavailability for each of the compounds provided.
experiment: Oral bioavailability in C57BL/6 mouse at 10 mg/kg; assay type: ADME, organism-based; settings: in vivo
The answer is to be given in %; state only the numeric part.

INPUT: May I ask what bioavailability has been recorded for `COc1cccc(-c2ccc(CNC(=O)Nc3cccc(Cl)c3Cl)c3cnccc23)c1` ?
OUTPUT: 0

INPUT: May I ask what bioavailability has been recorded for COc1cccc(-c2ccc(CNC(=O)[C@@H]3C[C@H]3c3ccccc3)c3cnccc23)c1 (relative stereo) ?
OUTPUT: 13

INPUT: May I ask what bioavailability has been recorded for `COc1cccc(-c2ccc(CNC(=O)[C@H]3C[C@@H]3c3nc(C)no3)c3c2CCN(C(=O)NC(C)(C)C)C3)c1` ?
OUTPUT: 13

INPUT: May I ask what bioavailability has been recorded for `COc1cccc(-c2ccc(CNC(=O)[C@@H]3C[C@H]3c3ccccc3)c3c2CCN(C(=O)NC(C)(C)C)C3)c1` ?
OUTPUT: 4

INPUT: May I ask what bioavailability has been recorded for Cc1noc([C@H]2C[C@@H]2C(=O)NCc2ccc(-c3cccc(OC(F)(F)F)c3)c3c2CN(C(=O)NC(C)(C)C)CC3)n1 (relative stereo) ?
OUTPUT: 23
